These measurements were taken from paper PMC11672562.

System: resistant clinical isolates of P. aeruginosa
EXPERIMENTAL DETAILS: MIC against resistant clinical isolates of P. aeruginosa
Assay type: cell-based
CONDITIONS: Pseudomonas aeruginosa, P. aeruginosa strain, Table 2 column 3, head prints 27853
MEASURE NAME: MIC (µg/mL)
Record the value in µg/mL, omitting the unit from your answer.

Would you please look over these solved cases?
| COMPOUND | MEASURE NAME | READOUT VALUE |
| --- | --- | --- |
| NCCNC[C@H]1O[C@H](O[C@@H]2[C@@H](O)[C@H](O[C@H]3O[C@H](CN)[C@@H](O)C[C@H]3N)[C@@H](N)C[C@H]2N)[C@H](O)[C@@H](N)[C@@H]1O | MIC | 16 |
| N=C(N)NCCNC[C@H]1O[C@H](O[C@@H]2[C@@H](O)[C@H](O[C@H]3O[C@H](CN)[C@@H](O)C[C@H]3N)[C@@H](N)C[C@H]2N)[C@H](O)[C@@H](N)[C@@H]1O | MIC | 16 |

Turning now to a further compound:
Briefly, MIC measured for C[C@H]1[C@H](NC(=O)/C(=N\OC(C)(C)C(=O)O)c2csc(N)n2)C(=O)N1S(=O)(=O)O [Aztreonam, aztreonam, reference compound] : 16

====

Tested on: S. aureus ATCC 29213
EXPERIMENTAL DETAILS: MIC, broth microdilution, S. aureus ATCC 29213
Type: cell-based
CONDITIONS: Staphylococcus aureus, ATCC29213, Table 1, read-out: MIC
MEASURE NAME: MIC (µg/mL)
Just the number in µg/mL, nothing appended.

| COMPOUND | UNIT | MIC |
| --- | --- | --- |
| N=C(N)NCCNC[C@H]1O[C@H](O[C@@H]2[C@@H](O)[C@H](O[C@H]3O[C@H](CN)[C@@H](O)C[C@H]3N)[C@@H](N)C[C@H]2N)[C@H](O)[C@@H](N)[C@@H]1O [Compound 6a] | µg/mL | 0.125 |
| NC[C@H]1O[C@H](O[C@H]2[C@H](O)[C@@H](O[C@H]3O[C@H](CO)[C@@H](O)[C@H](N)[C@H]3O)[C@H](N)C[C@@H]2N)[C@H](N)C[C@@H]1O [Tobramycin, tobramycin] | µg/mL | 0.06 |
| N=C(N)NCCCNC[C@H]1O[C@H](O[C@@H]2[C@@H](O)[C@H](O[C@H]3O[C@H](CN)[C@@H](O)C[C@H]3N)[C@@H](N)C[C@H]2N)[C@H](O)[C@@H](N)[C@@H]1O [Compound 6b] | µg/mL | 0.5 |
| NCCNC[C@H]1O[C@H](O[C@@H]2[C@@H](O)[C@H](O[C@H]3O[C@H](CN)[C@@H](O)C[C@H]3N)[C@@H](N)C[C@H]2N)[C@H](O)[C@@H](N)[C@@H]1O [Compound 4a] | µg/mL | 0.125 |

// below: MIC requested for another compound
Lab note: measured MIC of NCCCNC[C@H]1O[C@H](O[C@@H]2[C@@H](O)[C@H](O[C@H]3O[C@H](CN)[C@@H](O)C[C@H]3N)[C@@H](N)C[C@H]2N)[C@H](O)[C@@H](N)[C@@H]1O [Compound 4b] was 0.125

====

EXPERIMENTAL DETAILS: MTT cytotoxicity assay
Assay type: cell-based
CONDITIONS: human, MTT test, HEK293T cells
Quick reference: IC50 at 72 h of the listed items.

Check out these entries, answers already filled in.
| ENTRY SMILES | READOUT VALUE |
| --- | --- |
| NCCNC[C@H]1O[C@H](O[C@@H]2[C@@H](O)[C@H](O[C@H]3O[C@H](CN)[C@@H](O)C[C@H]3N)[C@@H](N)C[C@H]2N)[C@H](O)[C@@H](N)[C@@H]1O | > 140 µg/mL |
| N=C(N)NCCCNC[C@H]1O[C@H](O[C@@H]2[C@@H](O)[C@H](O[C@H]3O[C@H](CN)[C@@H](O)C[C@H]3N)[C@@H](N)C[C@H]2N)[C@H](O)[C@@H](N)[C@@H]1O | > 140 µg/mL |
| N=C(N)NCCNC[C@H]1O[C@H](O[C@@H]2[C@@H](O)[C@H](O[C@H]3O[C@H](CN)[C@@H](O)C[C@H]3N)[C@@H](N)C[C@H]2N)[C@H](O)[C@@H](N)[C@@H]1O | > 140 µg/mL |
| NC[C@H]1O[C@H](O[C@H]2[C@H](O)[C@@H](O[C@H]3O[C@H](CO)[C@@H](O)[C@H](N)[C@H]3O)[C@H](N)C[C@@H]2N)[C@H](N)C[C@@H]1O | 58 µg/mL |

Measured IC50 at 72 h, `NCCCNC[C@H]1O[C@H](O[C@@H]2[C@@H](O)[C@H](O[C@H]3O[C@H](CN)[C@@H](O)C[C@H]3N)[C@@H](N)C[C@H]2N)[C@H](O)[C@@H](N)[C@@H]1O` : > 140 µg/mL

====

Test system: resistant clinical isolates of P. aeruginosa
EXPERIMENTAL DETAILS: MIC against resistant clinical isolates of P. aeruginosa
Assay type: cell-based
CONDITIONS: Pseudomonas aeruginosa, P. aeruginosa strain, Table 2 column 7, head prints 27853
# MIC per record follows

| COMPOUND | MEASURE NAME | READOUT VALUE |
| --- | --- | --- |
| C[C@H]1[C@H](NC(=O)/C(=N\OC(C)(C)C(=O)O)c2csc(N)n2)C(=O)N1S(=O)(=O)O [Aztreonam, aztreonam, reference compound] | MIC | 16 µg/mL |

Lookup result for `NCCCNC[C@H]1O[C@H](O[C@@H]2[C@@H](O)[C@H](O[C@H]3O[C@H](CN)[C@@H](O)C[C@H]3N)[C@@H](N)C[C@H]2N)[C@H](O)[C@@H](N)[C@@H]1O` ; measured MIC: > 32 µg/mL

Per the records, this compound ( `N=C(N)NCCNC[C@H]1O[C@H](O[C@@H]2[C@@H](O)[C@H](O[C@H]3O[C@H](CN)[C@@H](O)C[C@H]3N)[C@@H](N)C[C@H]2N)[C@H](O)[C@@H](N)[C@@H]1O` ) has MIC equal to 32 µg/mL

// recorded MIC for `N=C(N)NCCCNC[C@H]1O[C@H](O[C@@H]2[C@@H](O)[C@H](O[C@H]3O[C@H](CN)[C@@H](O)C[C@H]3N)[C@@H](N)C[C@H]2N)[C@H](O)[C@@H](N)[C@@H]1O` : > 32 µg/mL

Form: compound = `NC[C@H]1O[C@H](O[C@H]2[C@H](O)[C@@H](O[C@H]3O[C@H](CO)[C@@H](O)[C@H](N)[C@H]3O)[C@H](N)C[C@@H]2N)[C@H](N)C[C@@H]1O` ; MIC = > 32 µg/mL

MIC reported for this compound `NCCNC[C@H]1O[C@H](O[C@@H]2[C@@H](O)[C@H](O[C@H]3O[C@H](CN)[C@@H](O)C[C@H]3N)[C@@H](N)C[C@H]2N)[C@H](O)[C@@H](N)[C@@H]1O` : 32 µg/mL
